// data source = patent US20170360911A1

Here, each record is paired with measured MFI (solvent ratio) data.
Molecular target: T1, HLA-A*24:02 (human)
T1 construct: whole, on cells; Empty class I molecule on T2-A24 cells
Assay: T2-A24 MHC class I stabilization, flow cytometry, anti-HLA-A24 17A10-FITC, peptide 100 ug/mL;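 note: peptide exposure stabilizes otherwise empty class I molecules on T2 cell surfaces, so surface class I level reflects how strongly the peptide binds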

// solved cases for MFI (solvent ratio) follow
> print(dat)
                  binder         readout.name           assay.value
1  CYSLSGHTAL [As135_10]  MFI (solvent ratio)  2.4 ratio to solvent
2    AIPLLSLPL [As403_9]  MFI (solvent ratio)  1.1 ratio to solvent

Consider now this further binder.
For this binder ( HFGLSELVAFYV [As184_12] ), measured MFI (solvent ratio) is 3.2 ratio to solvent
